system_under_test: PEG-3 (UniProt Q6IN02)
Sequence (Q6IN02 whole entry, looked up): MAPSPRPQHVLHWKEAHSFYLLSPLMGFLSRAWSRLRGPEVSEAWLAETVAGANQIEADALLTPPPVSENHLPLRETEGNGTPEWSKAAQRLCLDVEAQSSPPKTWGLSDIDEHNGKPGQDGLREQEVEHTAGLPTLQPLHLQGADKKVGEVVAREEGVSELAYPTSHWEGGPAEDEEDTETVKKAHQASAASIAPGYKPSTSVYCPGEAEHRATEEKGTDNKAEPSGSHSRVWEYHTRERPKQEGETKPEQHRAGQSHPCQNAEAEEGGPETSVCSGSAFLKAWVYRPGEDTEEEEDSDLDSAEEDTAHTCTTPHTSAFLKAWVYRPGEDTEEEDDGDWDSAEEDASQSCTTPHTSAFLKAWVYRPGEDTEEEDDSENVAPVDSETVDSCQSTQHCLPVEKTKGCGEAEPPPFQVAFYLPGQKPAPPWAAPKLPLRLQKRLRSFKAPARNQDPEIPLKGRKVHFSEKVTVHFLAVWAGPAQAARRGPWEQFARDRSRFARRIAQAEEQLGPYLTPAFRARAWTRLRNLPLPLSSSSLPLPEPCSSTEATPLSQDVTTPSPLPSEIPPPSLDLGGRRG
assay_notes: Peg3 promoter luciferase inhibitors, potency, dose response, cell-based, HeLa, CREF/GAPDH counter-screen panel (AID 624167)
experimental_conditions: CREF/GAPDH counter-screens; HeLa PEG-Prom luciferase reporter, overnight, run 1, dose range 1, at 100 µM (top of the series) unless noted
Recorded inhibition, one value per entry.

- molecule: "O=C(C=Cc1ccccn1)c1ccccc1"
  inhibition, %: 101
- molecule: "Cc1ccc(NC(=O)Nc2ccnc(-c3cccnc3)n2)cc1"
  inhibition, %: 44.3
- molecule: "O=C1OCCC1Sc1nnc(-c2ccc(Cl)cc2Cl)o1 (stereo unspecified)"
  inhibition, %: 92.6
- molecule: "O=C(Nc1cccc(C(=O)O)c1)Nc1ccc2c(c1)OCO2"
  inhibition, %: 95.9
- molecule: "COc1ccc(S(=O)(=O)/N=C2\\C=C(Nc3ccc(O)cc3)C(=O)c3ccccc32)cc1"
  inhibition, %: 96.4
- molecule: "COc1ccc(-c2nsc3c(N4CCCCC4C)ncnc23)cc1 (stereo unspecified)"
  inhibition, %: 89.7
- molecule: "O=S(=O)(Nc1cccc2cccnc12)c1ccccc1"
  inhibition, %: 81.7
- molecule: "CC1CCCCN1S(=O)(=O)c1ccc(C(=O)N(CCCN(C)C)c2nc3ccc(Br)cc3s2)cc1 (stereo unspecified)"
  inhibition, %: 102
- molecule: "CN1CCC2(CC1)N=C(c1ccc(F)cc1)C(=S)N2C(=O)c1ccc(C(C)(C)C)cc1"
  inhibition, %: 102
- molecule: "Cc1ccc(-c2cc3c(N=O)c4ccccc4c-3n[nH]2)cc1"
  inhibition, %: 75.1
- molecule: "CCN1CCN(C(c2ccc(C(F)(F)F)cc2)c2ccc3cccnc3c2O)CC1 (stereo unspecified)"
  inhibition, %: 101

###

Recorded inhibition, one value per entry.
system_under_test: PEG-3 (UniProt Q6IN02)
assay_notes: Peg3 promoter luciferase inhibitors, potency, dose response, cell-based, HeLa, CREF/GAPDH counter-screen panel (AID 624167)
experimental_conditions: CREF/GAPDH counter-screens; HeLa PEG-Prom luciferase reporter, overnight, run 1, dose range 1, at 100 µM (top of the series) unless noted

- chem_smiles: "Cc1ccc(S(=O)(=O)CCSC(=N)N)cc1"
  inhibition, %: 101
- chem_smiles: "O=Nc1c(O)ccc2cc(S(=O)(=O)O)ccc12"
  inhibition, %: 84.7
- chem_smiles: "CC(=O)c1cccc(NC(=O)c2cccc3c(-c4cccnc4)coc23)c1"
  inhibition, %: 36.4
- chem_smiles: "CN(C)CCNc1ccc(CO)c2oc3ccc(O)cc3c(=O)c12"
  inhibition, %: 99.1
- chem_smiles: "COc1ccc(CCNC(=O)c2cc3c(=O)n4ccccc4nc3n(C3CCCCC3)c2=N)cc1"
  inhibition, %: 102
- chem_smiles: "C/C(=N\\N=C(N)N)c1ccc(Cl)c(Cl)c1"
  inhibition, %: 102

###

assay_notes: PMA/ionomycin-induced NF-kB reporter inhibitors, Jurkat retest, confirmation, T-cell NF-kB inhibitor project, cell-based, luminescence, single concentration (AID 435020);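 also: plate controls were PMA/ionomycin stimulated DMSO wells for no effect and unstimulated DMSO wells for full effect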
experimental_conditions: Jurkat NF-kB luciferase, 16 h, at 4 µM, stronger effect = higher value
The other results are listed elsewhere or left out.
Recorded inhibition, one value per entry.
parameter_measured: inhibition (%)

- molecule: "Cc1ccc2cc3cc(C(=O)N4CCCCCC4)oc3nc2c1"
  observed: -90.9
- molecule: "CCOc1cc(C(=O)N2CCc3cc(OC)c(OC)cc3C2)ccc1OC(F)F"
  observed: 57.9
- molecule: "Cn1nccc1C(=O)NC1CCCc2c1cnn2-c1ccccc1F (centres undefined)"
  observed: 68.1
- molecule: "COc1ccc(-c2csc(Nc3ccccn3)n2)cc1"
  observed: 16.1
- molecule: "Cn1ccc(=Nc2ccc(NC(=O)c3ccc(N=c4ccn(C)c5ccc([N+](=O)[O-])cc45)cc3)cc2)cc1"
  observed: -15.3
- molecule: "Cc1cc(N)n2nc(-c3ccc(C(C)(C)C)cc3)cc2n1"
  observed: -164
- molecule: "COc1ccc(CC(=O)Nc2nc(-c3ccc(F)c(F)c3)cs2)cc1OC"
  observed: 58.5
- molecule: "CCCc1cc(C(=O)Nc2ccc(Cl)cn2)cs1"
  observed: -104
- molecule: "COc1cc2c(cc1OC)CN(C(=O)c1cc(=O)c3ccccc3o1)CC2"
  observed: 21.4
- molecule: "O=[N+]([O-])c1ccccc1S(=O)(=O)Nc1cccc2cccnc12"
  observed: 33.1
- molecule: "Cc1ccc2nc(-c3ccncc3)cc(C(=O)Nc3ccc(OC(F)F)cc3)c2c1"
  observed: 28.2
- molecule: "O=C(CCNC(=O)c1ccc(Br)cc1)Nc1cccc(S(=O)(=O)N2CCCCC2)c1"
  observed: 0.65
- molecule: "COc1ccc(C(=O)/C=C/Nc2ccccn2)cc1"
  observed: -78.9
- molecule: "CC(=O)c1ccc(Oc2cc(C)nc(-n3nc(C)cc3C)n2)cc1"
  observed: 58.9

###

system_under_test: PEG-3 (UniProt Q6IN02)
assay_notes: Peg3 promoter luciferase inhibitors, potency, dose response, cell-based, HeLa, CREF/GAPDH counter-screen panel (AID 624167)
experimental_conditions: CREF/GAPDH counter-screens; HeLa PEG-Prom luciferase reporter, overnight, run 1, dose range 1, at 100 µM (top of the series) unless noted
// Criterion not met strictly below 90% in inhibition; Criterion met otherwise

- compound: "CN1CCC(N(C)C(=O)/C=C/c2cn(-c3ccccc3)nc2-c2cccs2)CC1"
  system_under_test: "PEG-3 (UniProt Q6IN02)"
  assigned_category: "Criterion met"
- compound: "CCCN1CCc2c(sc(NC(=O)c3ccc(S(=O)(=O)N4CCN(C(=O)OCC)CC4)cc3)c2C(N)=O)C1"
  system_under_test: "PEG-3 (UniProt Q6IN02)"
  assigned_category: "Criterion not met"
- compound: "Cc1ccc(-n2cc(CNCCCn3ccnc3C)c(-c3ccc(F)cc3)n2)cc1"
  system_under_test: "PEG-3 (UniProt Q6IN02)"
  assigned_category: "Criterion met"
- compound: "CC1(C)C(=O)C=CC(=O)C(C)(C)C(=O)C=CC(=O)C(C)(C)C2=CC=C(O2)C(C)(C)C(=O)C=CC1=O"
  system_under_test: "PEG-3 (UniProt Q6IN02)"
  assigned_category: "Criterion met"
- compound: "O=C(O)c1cccc(COc2ccc(CO)cc2Cl)c1"
  system_under_test: "PEG-3 (UniProt Q6IN02)"
  assigned_category: "Criterion met"
- compound: "OCC1OC(n2ccc3c(NO)ncnc32)C(O)C1O (configuration not stated)"
  system_under_test: "PEG-3 (UniProt Q6IN02)"
  assigned_category: "Criterion met"
- compound: "CCCCCCCCCCCCCCC(O)C[N+](C)(CCO)CCO (configuration not stated)"
  system_under_test: "PEG-3 (UniProt Q6IN02)"
  assigned_category: "Criterion met"
- compound: "Cc1cccc2c1-c1sc(C(=O)NCCCN3CCCC(C)C3)cc1CO2 (configuration not stated)"
  system_under_test: "PEG-3 (UniProt Q6IN02)"
  assigned_category: "Criterion met"
- compound: "Cc1cc(C)cc(NC(=O)Cn2c(=O)oc3cc(S(=O)(=O)N4CCC(C)CC4)ccc32)c1"
  system_under_test: "PEG-3 (UniProt Q6IN02)"
  assigned_category: "Criterion not met"
- compound: "COc1cccc(CN(C)C(=O)C(CCSC)NS(=O)(=O)c2ccc3c(c2)OCCO3)c1OC (configuration not stated)"
  system_under_test: "PEG-3 (UniProt Q6IN02)"
  assigned_category: "Criterion not met"
- compound: "O=C(CCl)N1c2ccccc2Sc2ccc3ccccc3c21"
  system_under_test: "PEG-3 (UniProt Q6IN02)"
  assigned_category: "Criterion met"
- compound: "Cc1cc2sc3ccc(C#CC4(O)CCCCC4)cc3c(=O)c2cc1C"
  system_under_test: "PEG-3 (UniProt Q6IN02)"
  assigned_category: "Criterion not met"
- compound: "O=[N+]([O-])c1nn(-c2ccc3c(c2)OCCO3)n(O)c1=Nc1ccc(Cl)cc1"
  system_under_test: "PEG-3 (UniProt Q6IN02)"
  assigned_category: "Criterion not met"
- compound: "COc1ccc(CC(N)c2csc(Nc3cccc(OC)n3)n2)cc1 (configuration not stated)"
  system_under_test: "PEG-3 (UniProt Q6IN02)"
  assigned_category: "Criterion met"
- compound: "CCCc1cc(=O)n2[nH]c(C)c(-c3ccc(Cl)cc3)c2n1"
  system_under_test: "PEG-3 (UniProt Q6IN02)"
  assigned_category: "Criterion met"
- compound: "O=C(Nc1cccc(-c2cccc(Cl)c2)c1)C1CCN(C2CCC2)CC1"
  system_under_test: "PEG-3 (UniProt Q6IN02)"
  assigned_category: "Criterion met"
- compound: "COc1cc(SC)ccc1C(=O)Nc1nc2ccccc2[nH]1"
  system_under_test: "PEG-3 (UniProt Q6IN02)"
  assigned_category: "Criterion met"
- compound: "OC1(c2ccc(Cl)c(Cl)c2)C[n+]2ccccc2N1Cc1ccccc1 (configuration not stated)"
  system_under_test: "PEG-3 (UniProt Q6IN02)"
  assigned_category: "Criterion met"
- compound: "O=C(c1cc(-c2cccs2)nn1-c1ccccc1)N1CCN(S(=O)(=O)c2ccccc2)CC1"
  system_under_test: "PEG-3 (UniProt Q6IN02)"
  assigned_category: "Criterion not met"
- compound: "C(=Cc1cnc2ccccc2n1)c1ccc2c(c1)OCO2"
  system_under_test: "PEG-3 (UniProt Q6IN02)"
  assigned_category: "Criterion met"
- compound: "Cc1ccc2nc(-c3ccccc3)cn2c1"
  system_under_test: "PEG-3 (UniProt Q6IN02)"
  assigned_category: "Criterion met"
- compound: "COc1ccc(CC(N)c2csc(NC(=O)Nc3cc(OC)ccc3OC)n2)cc1 (configuration not stated)"
  system_under_test: "PEG-3 (UniProt Q6IN02)"
  assigned_category: "Criterion met"
- compound: "CC(C)c1ccc(NC(=O)Nc2nc(C(C)N)cs2)cc1 (configuration not stated)"
  system_under_test: "PEG-3 (UniProt Q6IN02)"
  assigned_category: "Criterion met"
- compound: "CC(=O)Nc1cccc(-c2cc(NC=O)c3ncc(-c4ccc(C(C)=O)cc4)n3c2)c1"
  system_under_test: "PEG-3 (UniProt Q6IN02)"
  assigned_category: "Criterion not met"
- compound: "COc1cc2ccccc2cc1C(=O)N(CCN(C)C)c1nc2c(OC)ccc(OC)c2s1"
  system_under_test: "PEG-3 (UniProt Q6IN02)"
  assigned_category: "Criterion met"
- compound: "O=C(CNCCC1=CCCCC1)Nc1ccc(N2CCCCCC2)cc1"
  system_under_test: "PEG-3 (UniProt Q6IN02)"
  assigned_category: "Criterion met"
- compound: "CC(C)(C)c1ccc(OCCCNCc2ccccc2)cc1"
  system_under_test: "PEG-3 (UniProt Q6IN02)"
  assigned_category: "Criterion met"
- compound: "N=c1n(CCN2CCCCC2)c2ccccc2n1CC(O)c1ccc(Cl)c(Cl)c1 (configuration not stated)"
  system_under_test: "PEG-3 (UniProt Q6IN02)"
  assigned_category: "Criterion met"
- compound: "O=C(Nc1nc2cc3c(cc2s1)OCCO3)C1=COCCO1"
  system_under_test: "PEG-3 (UniProt Q6IN02)"
  assigned_category: "Criterion met"
- compound: "CCN1C/C(=C/c2ccc(N3CCOCC3)cc2)C(=O)/C(=C/c2ccc(N3CCOCC3)cc2)C1"
  system_under_test: "PEG-3 (UniProt Q6IN02)"
  assigned_category: "Criterion met"
- compound: "CN(C)c1ccc(C=c2c3ccccc3n3c2cc(-c2ccccc2)[n+]3C)cc1"
  system_under_test: "PEG-3 (UniProt Q6IN02)"
  assigned_category: "Criterion met"
- compound: "COc1ccc(C2c3ccc4ccccc4c3Oc3ncn(CCCO)c(=N)c32)cc1 (configuration not stated)"
  system_under_test: "PEG-3 (UniProt Q6IN02)"
  assigned_category: "Criterion met"
- compound: "c1ccc(CCCNCCCn2cnc3c(OCc4ccccc4)ncnc32)cc1"
  system_under_test: "PEG-3 (UniProt Q6IN02)"
  assigned_category: "Criterion met"
- compound: "Cc1ccc(-c2cc(C(=O)Nc3nccs3)c3ccccc3n2)c(C)c1"
  system_under_test: "PEG-3 (UniProt Q6IN02)"
  assigned_category: "Criterion not met"
- compound: "C[C@@]12C(=O)Nc3cc(Cl)ccc3C(=O)N1[C@H]1c3cc(Cl)ccc3OC[C@@H]1[C@@H]2c1ccccc1"
  system_under_test: "PEG-3 (UniProt Q6IN02)"
  assigned_category: "Criterion not met"
- compound: "CN1OC[C@@H]2CN[C@H](c3ccc(-c4cc5ccccc5o4)cc3)C[C@@H]21"
  system_under_test: "PEG-3 (UniProt Q6IN02)"
  assigned_category: "Criterion met"
- compound: "Cc1cccc(N2CCN(C(=O)C3CCN(c4ncnc5c4nc4n5CCCCC4)CC3)CC2)c1C"
  system_under_test: "PEG-3 (UniProt Q6IN02)"
  assigned_category: "Criterion met"
- compound: "CCN1CCCC1CN(Cc1cc2ccc(C)cc2[nH]c1=O)C(=S)Nc1ccc(OC)cc1 (configuration not stated)"
  system_under_test: "PEG-3 (UniProt Q6IN02)"
  assigned_category: "Criterion met"
- compound: "CC(C)(C)C(=O)Nc1ccc(NC(=O)c2ccco2)nc1"
  system_under_test: "PEG-3 (UniProt Q6IN02)"
  assigned_category: "Criterion met"
- compound: "CN(C)c1c([N+](=O)[O-])cc(N2C(=O)C=CC2=O)cc1[N+](=O)[O-]"
  system_under_test: "PEG-3 (UniProt Q6IN02)"
  assigned_category: "Criterion met"
- compound: "O=C(Nc1ncc([N+](=O)[O-])s1)c1ccc2c(c1)OCO2"
  system_under_test: "PEG-3 (UniProt Q6IN02)"
  assigned_category: "Criterion met"
